Tested on: Mycobacterium tuberculosis
Test: In vitro actual minimum inhibitory concentration value of the compound was determined against Mycobacterium tuberculosis
Assay type: functional
Please note: MIC exactly at 2 µg/mL is label 0. Only values below 2 µg/mL get label 1.

Reference set (6 entries):
> print(dat)
                               smiles.entry    label
1  COC(=O)c1c(C)[n+]([O-])c2cc(F)c(F)cc2[n+]1[O-]  label 1
2  CCOC(=O)COC(=O)c1c(CC)[n+]([O-])c2ccc(Cl)cc2[n+]1[O-]  label 1
3  COC(=O)c1c(Cc2ccccc2)[n+]([O-])c2ccc(C)cc2[n+]1[O-]  label 1
4  COC(=O)c1c(C(C)(C)C)[n+]([O-])c2ccccc2[n+]1[O-]  label 0
5  COC(=O)c1c(Cc2ccccc2)[n+]([O-])c2ccccc2[n+]1[O-]  label 1
6  COC(=O)c1c(Cc2ccccc2)[n+]([O-])c2ccc(OC)cc2[n+]1[O-]  label 1

In the record for C=CCc1c(C(=O)OC)[n+]([O-])c2cc(Cl)c(Cl)cc2[n+]1[O-] , is MIC less than 2 µg/mL?
label 0

Determine if COC(=O)c1c(C)[n+]([O-])c2ccc(OC)cc2[n+]1[O-] shows MIC strictly lower than 2 µg/mL.
label 1

# strict comparison: is reported MIC < 2 µg/mL? input = COCCc1c(C(=O)OC)[n+]([O-])c2cc(Cl)c(Cl)cc2[n+]1[O-]
label 1

Identify whether the molecule COC(=O)c1c(C)[n+]([O-])c2ccccc2[n+]1[O-] records MIC below 2 µg/mL.
label 1

Dear reviewer, please state whether CCc1c(C(=O)OC)[n+]([O-])c2cc(F)c(F)cc2[n+]1[O-] has MIC strictly beneath 2 µg/mL.
label 1

Please check: MIC for COC(=O)c1c(C(C)(C)C)[n+]([O-])c2cc(Cl)c(Cl)cc2[n+]1[O-] , strictly under 2 µg/mL or not?
label 0

Record COC(=O)c1c(C)[n+]([O-])c2ccc(C)cc2[n+]1[O-] : is its MIC strictly below 2 µg/mL?
label 1

Report whether reported MIC is lower than 2 µg/mL (strictly) for CCc1c(C(=O)OC)[n+]([O-])c2cc(Cl)c(Cl)cc2[n+]1[O-]
label 1

Criterion: MIC strictly below 2 µg/mL. Is it met by CCOC(=O)COC(=O)c1c(CC)[n+]([O-])c2cc(Cl)c(Cl)cc2[n+]1[O-] ?
label 1

hey, is MIC for CCc1c(C(=O)OC)[n+]([O-])c2cc(OC)ccc2[n+]1[O-] lower than 2 µg/mL or not?
label 0

Quick check: MIC of COC(=O)c1c(C(C)(C)C)[n+]([O-])c2cc(C)c(C)cc2[n+]1[O-] under 2 µg/mL?
label 0

Input COC(=O)c1c(C)[n+]([O-])c2cc(C)c(C)cc2[n+]1[O-] ; condition: MIC strictly below 2 µg/mL. Does it hold?
label 0

---

Test system: Mycobacterium tuberculosis
Assay: In vitro ratio of EC90 and MIC value of the compound was determined
Format: functional
// assign true (1) if Ratio falls strictly below 2, else false (0) (ties count as false (0))

> print(dat)
                               smiles.entry      label
1  CCc1c(C(=O)OC)[n+]([O-])c2cc(Cl)c(Cl)cc2[n+]1[O-]  false (0)
2  COC(=O)c1c(Cc2ccccc2)[n+]([O-])c2ccccc2[n+]1[O-]   true (1)
3  CCc1c(C(=O)OC)[n+]([O-])c2cc(Cl)ccc2[n+]1[O-]  false (0)
4  COC(=O)c1c(Cc2ccccc2)[n+]([O-])c2ccc(Cl)cc2[n+]1[O-]   true (1)
5  CCc1c(C(=O)OC)[n+]([O-])c2ccccc2[n+]1[O-]   true (1)

Given COC(=O)c1c(Cc2ccccc2)[n+]([O-])c2ccc(C)cc2[n+]1[O-] , is recorded Ratio strictly lower than 2?
false (0)

hey, is Ratio for COCCc1c(C(=O)OC)[n+]([O-])c2cc(Cl)c(Cl)cc2[n+]1[O-] lower than 2 or not?
false (0)

Ratio under 2? Item: COC(=O)c1c(C)[n+]([O-])c2ccc(C)cc2[n+]1[O-]
true (1)

Say whether its Ratio is strictly beneath 2. Entry: COC(=O)c1c(C)[n+]([O-])c2cc(C)c(C)cc2[n+]1[O-]
true (1)
